residual activity values by entry
measuredOn: Tyrosine-protein kinase Lck (Homo sapiens)
measurementSetup: at 10 µM

compound	residual activity, %
O=C(O)/C=C/c1cc(Br)c(Br)c(Br)c1Br	80
CCCCc1c(-c2ccc(OC)cc2)[nH]c2nccnc12	82
O=C(NC(NC(=S)Nc1ccc(F)c([N+](=O)[O-])c1)C(Cl)(Cl)Cl)C(c1ccccc1)c1ccccc1 (stereo not given)	74
NC(=O)c1cccc(-c2cc(Nc3ccc(OC(F)(F)F)cc3)ncn2)c1	91
COc1ccc(CNC(=O)Nc2ncc([N+](=O)[O-])s2)cc1	9

###

measuredOn: Platelet-derived growth factor receptor alpha (Homo sapiens)
measurementSetup: at 1 µM

smilesData	residual activity / %
COc1cc2c(cc1OC)-c1n[nH]c(Nc3cccc(F)c3)c1C2	2
O=C(c1ccccc1)c1ccc(N2CCOCC2)cc1O	113
CC(C)(C)n1nc(Cc2cccc3ccccc23)c2c(N)ncnc21	116
Nc1ncnc2[nH]nc(Nc3ccc(F)cc3)c12	105
O=C1Nc2ccc(Cl)cc2/C1=C/c1cc(Cl)c(O)c(Cl)c1	60
Nc1ncnc2c1c(-c1ccc(Oc3ccccc3)cc1)cn2C1CCCC1	17
CC(C)(C)c1nc2c3ccc(F)cc3c3c(=O)[nH]ccc3c2[nH]1	102
NCCNc1ncc(C(N)=O)c(Nc2cccc(C(F)(F)F)c2)n1	107
NC(=O)Nc1sc(-c2ccc(F)cc2)cc1C(N)=O	41
CCN(CC)CCNC(=O)c1c(C)[nH]c(/C=C2\C(=O)Nc3ccc(Cl)cc32)c1C	2
COc1ccc2c(c1)c(C1=C(c3c[nH]c4ccccc34)C(=O)NC1=O)cn2CCCN(C)C	106
